# SYSTEM TESTED: UniProtKB P0DTD1
# TEST: biochemical
# Type: biochemical
# Design: unit not given here
# TEST SETTINGS: sheet LOPAC_screen_w_protease; primary screen with protease, replicate 2
ENDPOINT LABEL: Replicate_2
Just the number.

Solved entries (count: 3):
- COc1cc2c(CCNC(C)=O)c[nH]c2cc1O [6-Hydroxymelatonin]: 1.31
- COc1ccc2c(c1)c(CC(=O)O)c(C)n2C(=O)c1ccccc1: 3.073
- NCC(CC(=O)O)c1ccc(Cl)cc1 (racemic) [(±)-Baclofen]: 3.465

Under UniProtKB P0DTD1: Replicate_2 value of CC(=O)O[C@H]1C[C@@]2(C)[C@@H](C[C@@H](O)[C@H]3[C@@]4(C)CC[C@@H](O)[C@@H](C)[C@@H]4CC[C@@]32C)/C1=C(\CCC=C(C)C)C(=O)[O-].[Na+] [Fusidic acid sodium] ?
0.1614

Under UniProtKB P0DTD1: Replicate_2 value of CC1CN(S(=O)(=O)c2cccc3cnccc23)CCN1.Cl.Cl (centres unmarked) ?
1.292

Under UniProtKB P0DTD1: Replicate_2 value of `Cc1ccc(O)c(N=Nc2ccccc2)n1` ?
1.301

Under UniProtKB P0DTD1: Replicate_2 value of `Cc1nc2c(OCc3ccccc3)cccn2c1CC#N` ?
2.24

Under UniProtKB P0DTD1: Replicate_2 value of `CCCCCCCCCCC/C=C\C(C)(C)/C=C\CCCC(=O)O` ?
0.5145

* * *

# SYSTEM TESTED: SARS-CoV-2 3CLpro (Severe acute respiratory syndrome coronavirus 2)
# TEST: biochemical
# Type: biochemical
# Design: unit not given here
# TEST SETTINGS: sheet LOPAC_screen_w_protease; primary screen with protease, 5 µM; replicate 2
# binarize Replicate_2: threshold -1 inclusive, high side Condition met, low side Condition not met

Threshold query (Replicate_2 >= -1) on `CC(C)(Sc1ccc(CCN(CCCCC2CCCCC2)C(=O)NC2CCCCC2)cc1)C(=O)O`
Condition met

* * *

# SYSTEM TESTED: SARS-CoV-2 3CLpro (Severe acute respiratory syndrome coronavirus 2, UniProt P0DTD1)
# TEST: biochemical
# Assay type: biochemical
# TEST SETTINGS: 4 h, read-out: Replicate_1
Counter-ions that a name gives are not always drawn.
ENDPOINT LABEL: inhibition at 5 µM (%)
I only need the number, in %, no unit after it.

• CC(C)NC(C)Cc1ccc(I)cc1 (centres unmarked) [Iofetamine hydrochloride] = 3.54
• c1ccc(C2CN3CCSC3=N2)cc1 (centres unmarked) [Tetramisole hydrochloride] = 1.43
• O=C(Nc1ccc([N+](=O)[O-])cc1Cl)c1cc(Cl)ccc1O [Niclosamide] = 5.53
• O=c1cc(-c2ccc(O)c(O)c2)oc2cc(O)cc(O)c12 [luteolin, reference compound] = 0.919

GET /values?readout=inhibition at 5 µM&item= `O=c1c(-c2ccc(O)cc2)coc2cc(O)ccc12`
5.3

GET /values?readout=inhibition at 5 µM&item= CC(C)NCC(O)COc1ccc(CCOCC2CC2)cc1 (centres unmarked) [Betaxolol hydrochloride]
0.905

GET /values?readout=inhibition at 5 µM&item= CCCCCCCCCCCCCC(=O)O[C@@H]1[C@@H](C)[C@@]2(O)[C@@H](C=C(CO)C[C@]3(O)C(=O)C(C)=C[C@@H]23)[C@@H]2C(C)(C)[C@]12OC(C)=O [Phorbol 12-myristate 13-acetate]
1.97

GET /values?readout=inhibition at 5 µM&item= `CC(=O)c1c(O)c(C)c(O)c(Cc2c(O)c3c(c(C(=O)/C=C/c4ccccc4)c2O)OC(C)(C)C=C3)c1O`
4.21
